# System under test: Potassium voltage-gated channel subfamily KQT member 2 (Rattus norvegicus) (UniProt O88943)
# Sequence (O88943 whole entry, looked up): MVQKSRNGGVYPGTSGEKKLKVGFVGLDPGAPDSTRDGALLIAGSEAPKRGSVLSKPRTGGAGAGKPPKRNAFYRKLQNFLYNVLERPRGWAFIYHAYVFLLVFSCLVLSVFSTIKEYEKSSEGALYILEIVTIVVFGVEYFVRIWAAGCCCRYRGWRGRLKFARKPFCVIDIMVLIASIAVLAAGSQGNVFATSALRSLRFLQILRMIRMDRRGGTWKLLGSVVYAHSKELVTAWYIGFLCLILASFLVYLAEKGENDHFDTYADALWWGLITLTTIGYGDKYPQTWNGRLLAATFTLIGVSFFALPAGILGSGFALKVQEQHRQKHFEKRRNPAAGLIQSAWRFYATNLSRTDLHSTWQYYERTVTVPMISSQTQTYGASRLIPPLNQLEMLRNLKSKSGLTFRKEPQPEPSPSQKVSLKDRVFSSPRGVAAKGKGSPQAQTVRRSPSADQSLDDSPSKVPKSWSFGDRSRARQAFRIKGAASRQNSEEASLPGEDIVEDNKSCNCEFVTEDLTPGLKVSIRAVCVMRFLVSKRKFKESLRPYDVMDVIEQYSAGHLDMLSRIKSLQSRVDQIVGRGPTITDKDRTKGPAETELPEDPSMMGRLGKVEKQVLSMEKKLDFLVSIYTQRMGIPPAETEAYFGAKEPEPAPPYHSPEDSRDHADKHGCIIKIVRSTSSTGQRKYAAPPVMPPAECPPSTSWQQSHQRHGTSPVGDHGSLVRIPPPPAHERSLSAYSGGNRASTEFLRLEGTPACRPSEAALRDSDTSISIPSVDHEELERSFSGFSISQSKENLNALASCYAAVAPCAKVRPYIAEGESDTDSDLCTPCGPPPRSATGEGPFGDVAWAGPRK
# Test description: rat KCNQ2 potassium channel inhibitors, primary screen, cell-based, CHO-K1, FluxOR thallium flux, B-score (AID 2156)
# Condition parameters: 20 min, at 10 µM
About 3,400 (1.1%) of roughly 310,000 compounds were called active.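 How the source made its calls: active means fluorescence ratio B-score at most minus 3 library SDs, with starting brightness B-score within 2 library SDs (cut at about -5.5 in these data); inactive means the rest, inconclusive results apart.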 The entries come from a sample that favours actives as a whole.
Outcomes: active, inactive

>>> df
                                   compound  class_name
0  CC(=O)N1N=C(c2ccncc2)OC1(Cc1ccccc1)Cc1ccccc1      active
1                        Nc1cccnc1Sc1ccccc1    inactive
2      CCOC(=O)C1CCN(C(=O)Nc2cccc(OC)c2)CC1    inactive
3  CCOC(=O)c1cnc2nc(SCc3ccccc3Cl)[nH]n2c1=O    inactive
4  CC(=O)N1N=C(c2ccccc2)OC1c1cccnc1 (stereo unspecified)    inactive
5  O=C(Cc1ccccc1)N1N=C(c2ccncc2)CC1(O)C(F)(F)F (stereo unspecified)    inactive

// provenance: PubChem BioAssay AID2156
